Molecular target: T1, human tissue factor pathway inhibitor (TFPI) (human, UniProt P10646 29-304, limits assumed)
T1 construct: bought; also called hTFPI; human TFPI
T1 sequence (looked up): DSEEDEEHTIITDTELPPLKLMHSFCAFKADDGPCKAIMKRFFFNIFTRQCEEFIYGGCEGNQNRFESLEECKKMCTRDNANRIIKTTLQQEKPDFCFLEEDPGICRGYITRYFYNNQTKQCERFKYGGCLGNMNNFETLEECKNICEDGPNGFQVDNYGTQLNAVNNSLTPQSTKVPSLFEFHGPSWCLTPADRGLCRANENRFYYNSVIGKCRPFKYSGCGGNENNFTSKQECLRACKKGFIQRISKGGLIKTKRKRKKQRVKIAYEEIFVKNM
Assay: competitive ELISA
measurement label: variant/HC_D62R (ratio)
Just the number in ratio, nothing appended.

What does the data say about its variant/HC_D62R? Entry: 4B7 HC N32D+D62R+Y112D/LC S32R+D33R (Fab, V domains shown) VH: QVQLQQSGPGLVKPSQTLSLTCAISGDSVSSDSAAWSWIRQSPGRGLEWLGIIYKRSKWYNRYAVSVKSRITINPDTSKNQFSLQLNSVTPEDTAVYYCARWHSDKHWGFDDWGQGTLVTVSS VL: DIVMTQSPLSLPVTPGEPASISCRSSQSLVFRRGNTYLNWYLQKPGQSPQLLIYKGSNRASGVPDRFSGSGSGTDFTLKISRVEAEDVGVYYCQQYDSYPLTFGQGTKVEIKR
14.8

What does the data say about its variant/HC_D62R? Entry: 4B7 HC N32D+D62Q+H107M+Y112D/LC S32R+D33F (Fab, V domains shown) VH: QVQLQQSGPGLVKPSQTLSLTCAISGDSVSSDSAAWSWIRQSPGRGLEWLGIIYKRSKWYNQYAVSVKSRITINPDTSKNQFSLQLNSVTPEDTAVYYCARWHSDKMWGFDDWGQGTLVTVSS VL: DIVMTQSPLSLPVTPGEPASISCRSSQSLVFRFGNTYLNWYLQKPGQSPQLLIYKGSNRASGVPDRFSGSGSGTDFTLKISRVEAEDVGVYYCQQYDSYPLTFGQGTKVEIKR
23.2

What does the data say about its variant/HC_D62R? Entry: 4B7 HC N32D+I53T+D62Q+Y112D/LC F31I+D33F+N35I (Fab, V domains shown) VH: QVQLQQSGPGLVKPSQTLSLTCAISGDSVSSDSAAWSWIRQSPGRGLEWLGITYKRSKWYNQYAVSVKSRITINPDTSKNQFSLQLNSVTPEDTAVYYCARWHSDKHWGFDDWGQGTLVTVSS VL: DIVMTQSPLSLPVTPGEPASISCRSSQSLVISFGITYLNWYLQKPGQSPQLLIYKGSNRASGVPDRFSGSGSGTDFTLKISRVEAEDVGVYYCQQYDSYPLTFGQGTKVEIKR
5.7

What does the data say about its variant/HC_D62R? Entry: 4B7 HC N32D+D62Q+H107M+Y112D/LC F31M+D33F+N35T+Y37F (Fab, V domains shown) VH: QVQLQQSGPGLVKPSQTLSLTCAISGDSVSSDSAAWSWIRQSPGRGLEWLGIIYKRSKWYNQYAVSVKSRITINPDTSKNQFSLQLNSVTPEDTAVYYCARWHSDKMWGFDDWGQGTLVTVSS VL: DIVMTQSPLSLPVTPGEPASISCRSSQSLVMSFGTTFLNWYLQKPGQSPQLLIYKGSNRASGVPDRFSGSGSGTDFTLKISRVEAEDVGVYYCQQYDSYPLTFGQGTKVEIKR
19.4

What does the data say about its variant/HC_D62R? Entry: B27.1 (4B7 HC N32D+D62R+Y112D/LC N35T+D97T) (Fab, V domains shown) VH: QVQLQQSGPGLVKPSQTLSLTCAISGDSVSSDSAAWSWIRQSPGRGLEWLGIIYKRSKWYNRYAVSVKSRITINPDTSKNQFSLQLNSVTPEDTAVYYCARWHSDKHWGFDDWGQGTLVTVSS VL: DIVMTQSPLSLPVTPGEPASISCRSSQSLVFSDGTTYLNWYLQKPGQSPQLLIYKGSNRASGVPDRFSGSGSGTDFTLKISRVEAEDVGVYYCQQYTSYPLTFGQGTKVEIKR
26
